Test system: human APOE RNA
protocol.summary: Dose-dependent inhibition of human APOE RNA in HepG2 cells, electroporation, 24 hours (Example 6)
Type: cell-based
experimental.conditions: 8,000 nM
Strand notation (5' to 3'): a small letter for the sugar, then the base; units joined by * are phosphorothioate-linked, units joined directly phosphodiester-linked; [ ] holds rarer units or linkages, { } end groups; capitals alone tell only the bases. [ms] = mesyl phosphoramidate linkage; e = 2'-O-(2-methoxyethyl) (MOE); k = constrained ethyl (cEt); [5mC] = 5-methylcytosine; d = 2'-deoxy (DNA)
assay.readout: APOE RNA (% UTC)

>  <substance>
1736522: 6-10-4 MOE gapmer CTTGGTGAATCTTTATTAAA, linkages sooosszzssssssssoss (e[5mC]*eTeTeGeG*eT*dG[ms]dA[ms]dA*dT*d[5mC]*dT*dT*dT*dA*dT*eTeA*eA*eA) [compound 1736522]

>  <measured.on>
human APOE RNA

>  <APOE RNA (% UTC)>
18 % UTC

$$$$
>  <substance>
1736525: 6-10-4 MOE gapmer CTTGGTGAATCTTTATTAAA, linkages sooosszzsssssssssss (e[5mC]*eTeTeGeG*eT*dG[ms]dA[ms]dA*dT*d[5mC]*dT*dT*dT*dA*dT*eT*eA*eA*eA) [compound 1736525]

>  <measured.on>
human APOE RNA

>  <APOE RNA (% UTC)>
22 % UTC

$$$$
>  <substance>
1652902: 6-10-4 MOE gapmer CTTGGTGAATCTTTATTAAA, linkages sooooossssssssssoss (antisense e[5mC]*eTeTeGeGeTdG*dA*dA*dT*d[5mC]*dT*dT*dT*dA*dT*eTeA*eA*eA) [compound 1652902]

>  <measured.on>
human APOE RNA

>  <APOE RNA (% UTC)>
3 % UTC

$$$$

Q: Read the entry 1736531 (e[5mC]*eT*eT*eG*eG*kTdG[ms]dA[ms]dA[ms]dT*d[5mC]*dT*dT*dT*dA[ms]dT*eT*eA*eA*eA; antisense) [Compound 1736531] and write its reported APOE RNA (% UTC).
A: 12 % UTC

Q: Read the entry 1736536 (e[5mC]*eT*eT*eG*kGkT*dG[ms]dA[ms]dA[ms]dT*d[5mC]*dT*dT*dT*dA[ms]dT*eT*eA*eA*eA; antisense) [Compound 1736536] and write its reported APOE RNA (% UTC).
A: 9 % UTC
